- PROTOCOL_SUMMARY: small-molecule microarray binders of probe aShh, primary screen, biochemical, biotinylated probe, 635/667 nm fluorescence (AID 1114);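 also: probe is biotin-labelled aShh protein from a stem cell growth factor screen; measures binding of labelled protein to compounds printed on the slide; score merges feature fluorescence at 667 nm with signal-to-noise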
- ASSAY_CONTEXT: higher = more signal
MEASURED_PARAMETER: composite z-score

>>> observed_value("CC(C)(C)N1C(=O)[C@H]2[C@H]3[C@H](O)[C@H](O)CC(=NNC(=O)OCc4ccccc4)[C@@H]3CC[C@H]2C1=O")
-0.399
>>> observed_value("CCN1C(=O)[C@H]2[C@H]3[C@H](O)[C@H](O)CC(=NO[C@@H]4O[C@H](CO)[C@@H](O)[C@H](O)[C@H]4O)[C@H]3CC[C@H]2C1=O")
0.204
>>> observed_value("CC(C)=CCCC(C)=CCON=C1C[C@@H](O)[C@@H](O)[C@@H]2[C@@H]3C(=O)N(C4CCCCC4)C(=O)[C@@H]3CC[C@H]12")
-0.0904
>>> observed_value("COC(=O)[C@H](C)NC(=O)CCC1CC(OC(=O)NCc2ccc3c(c2)OCO3)CC2(CCCC(COC(=O)NCc3ccccc3)O2)O1 (stereo not given in full)")
-0.0709
>>> observed_value("CCN1C(=O)[C@H]2[C@H]3[C@H](O)[C@H](O)CC(=NOCC[C@@H]4C=C[C@H](OC(C)=O)[C@@H](COC(C)=O)O4)[C@@H]3CC[C@H]2C1=O")
0.0899
>>> observed_value("C[C@@H]1CC[C@@H](C(=O)O)N[C@H]1c1cccc(N2CCOCC2)c1")
-0.262
>>> observed_value("CC(C)[C@@H](OCc1ccccc1)[C@H](C)C=NO[C@H](C)c1cn([C@@H]2COC[C@H]2O)nn1")
-0.206
>>> observed_value("CC(CCN1CCCCc2nc(C)c(C)cc21)=NO[C@H](C)c1cn([C@@H]2COC[C@H]2O)nn1")
-0.112
>>> observed_value("CC(CCN1CCCCc2nc(C)c(C)cc21)=NO[C@@H](C)c1cc(-c2c(C)cc(C)cc2C)no1")
-0.221
>>> observed_value("CC(CCN1CCCc2nc(C)c(C)cc21)=NO[C@H](C)c1cn([C@H](CO)Cc2ccccc2)nn1")
-0.16
>>> observed_value("C=CC[C@@H]1C=C[C@H](ON=C[C@@H](NS(=O)(=O)c2ccc(C)cc2)[C@H](C)C=CCC(=O)OC)[C@@H](CO)O1")
-0.138
>>> observed_value("COC(=O)[C@H](C)NC(=O)CCC1CC(OC(=O)NCc2ccc3c(c2)OCO3)CC2(CCCC(COC(=O)NCCc3ccc(Cl)cc3)O2)O1 (stereo not given in full)")
0.0893
>>> observed_value("CO[C@@H]1[C@H](O)CO[C@H]1C=Cc1ccccc1")
-0.16
>>> observed_value("CCC1=NOC(CCC2CC(OC(=O)NCc3cccc4c3OCO4)CC3(CCCC(COC(=O)NCCc4ccc(Cl)cc4)O3)O2)C1 (stereo not given)")
-0.16
>>> observed_value("CCOC(=O)[C@H](Cc1ccccc1)NC(=O)CCC1CC(OC(=O)NCCc2ccc(F)cc2)CC2(CCCC(COC(=O)NCc3cccc(C(F)(F)F)c3)O2)O1 (stereo not given in full)")
-0.221

====

Listed next: entries and their corresponding z-score.
- PROTOCOL_SUMMARY: HepG2 liver cancer cell viability effects, profiling panel, resazurin fluorescence, 24 h, PK04 Diversity Set (AID 1172); also: test concentration not given here
- ASSAY_CONTEXT: higher = more signal
MEASURED_PARAMETER: z-score

>>> observed_value("COC(=O)[C@H](C)NC(=O)CCC1CC(OC(=O)NCc2ccc3c(c2)OCO3)CC2(CCCC(COC(=O)NCCc3ccc(Cl)cc3)O2)O1 (stereo partly specified)")
0.388
>>> observed_value("CCOC(=O)NN=C1C[C@@H](O)[C@@H](O)[C@@H]2[C@@H]3C(=O)N(CC)C(=O)[C@@H]3CC[C@H]12")
-0.635
>>> observed_value("CCOC(=O)[C@H](Cc1ccccc1)NC(=O)CCC1CC(OC(=O)NCc2cccc3ccccc23)CC2(CCCC(COC(=O)NCC3CCCCC3)O2)O1 (stereo partly specified)")
1.21
>>> observed_value("CCOC(=O)[C@H](Cc1ccccc1)NC(=O)CCC1CC(OC(=O)NCc2cccc3ccccc23)CC2(CCCC(COC(=O)NCc3ccc4c(c3)OCO4)O2)O1 (stereo partly specified)")
-0.0973
>>> observed_value("CCc1cc2c(nc1CC)CCN(CCC(C)=NO[C@@H]1O[C@H](COC(C)=O)[C@@H](OC(C)=O)[C@H](OC(C)=O)[C@H]1OC(C)=O)C2")
-0.11
>>> observed_value("Cc1ccc(C(C)C)n1C(=O)OC(C)(C)C")
-0.728
>>> observed_value("O=C(NN=C1C[C@@H](O)[C@@H](O)[C@@H]2[C@@H]3C(=O)N(c4ccc(F)cc4F)C(=O)[C@@H]3CC[C@H]12)OCc1ccccc1")
2.08
>>> observed_value("COC(=O)[C@H](C)NC(=O)CCC1CC(OC(=O)NCCc2ccc(F)cc2)CC2(CCCC(COC(=O)NCCc3ccccc3OC)O2)O1 (stereo partly specified)")
0.185
>>> observed_value("O=C1C[C@@H](O)[C@@H](O)[C@@H]2[C@@H]3C(=O)N(Cc4ccccc4)C(=O)[C@@H]3CC[C@H]12")
-0.252
>>> observed_value("CC(C)(C)N1C(=O)[C@H]2[C@H]3[C@H](O)[C@H](O)CC(=NOC[C@@H](O)COCc4ccco4)[C@H]3CC[C@H]2C1=O")
-0.488
>>> observed_value("C[C@@H]1CC[C@H]2C(=O)N3[C@@H](CC[C@@H](C)[C@@H]3c3ccc(Br)cc3)C(=O)N2[C@H]1c1ccc(Br)cc1")
-0.346
>>> observed_value("OC[C@H]1O[C@H](C#Cc2ccccc2)C=C[C@@H]1O")
-0.0313
>>> observed_value("CCCCOC(OCCCC)C(O)CSc1ccc2ccccc2c1 (stereo unspecified)")
-0.879
>>> observed_value("CSCC[C@@H]1NC(=O)CC=C[C@@H](C)COC(=O)[C@H](C)COC1=O")
0.376
>>> observed_value("CON=C(C)CCN1CCCCc2nc(C)c(C)cc21")
-0.18
>>> observed_value("CC(C)CON=C1C[C@@H](O)[C@@H](O)[C@@H]2[C@@H]3C(=O)N(C(C)(C)C)C(=O)[C@@H]3CC[C@@H]12")
-0.685
